target: T1, cynomolgus monkey DLL4 extracellular domain (cynomolgus monkey); experiment: SPR (Biacore)
T1 construct: extracellular domain; also called cynoDLL4 ECD; Cyno DLL4
Below, each entry is listed alongside its reported koff.
Express it in s⁻¹; write the number only.

binder="14G1 rat anti-DLL4 monoclonal antibody (antibody, rat IgG2a, V domains shown, rat IgG2a/K hybridoma mAb; also called MC13-14G1.1B4) VH: EVQLQQSGAELAKPGSSVKISCKASGYTFTNYDISWIKQTNGQGLEYLGYINTGSGGIYSNEKFKGKATLTVDKSSNTAFMQLSSLTPEDTAVYYCVREGNNFDHWGQGVKVTVSS VL: DTVMTQSPASMSTSVGERVTVNCKASQSVGTIVAWFQQKPGQSPKRLIYLATYRHTGVPDRFIGSGFGRDFTLTISNVEAEDLAVYYCLQYGSRPFTFGAGTKLEIKR" observed_result=0.00041
binder="15D6 rat anti-DLL4 monoclonal antibody (antibody, rat IgG2a, V domains shown, rat IgG2a/K hybridoma mAb; also called MC13-15D6.1G7) VH: EVQLQQSGPELAKPGSSVKISCKASGYTFTSSYISWIKQTTGQGLEYIGYINTGSGGTDYNEKFKDKATLTVDKSSRTVFMQLSSLTPGDSAVYYCAKSILLGSTYYLDYWGQGVMVTVSS VL: DTVLTQSPALAVSLGQRVTISCKASRSLSSPMYSYIYWYQQKLGQQPRLLIYRASTLASGVPARFSGSGSGTDFTLNIDPVEADDIATYFCQQSWSDPFTFGSGTKLEIKR" observed_result=0.00083

Input: Consider the binder 14A11 rat anti-DLL4 monoclonal antibody (antibody, rat IgG2a, V domains shown, rat IgG2a/K hybridoma mAb; also called MC13-14A11.3A4) VH: EVQLQQSGPELAKPGSSVKISCKASGYTFTNSYISWIKQTTGQGLEYVGYINTGSGGADYNEKFKGKATLTVDKSSRTAFMQLSSLTPGDSAVYYCAKSILLGSTCYFDYWGQGVLVTVSS VL: NTVLTQSPALAVSLGQRVTISCKASRSVSSPMYSYIYWYQQKPGQQPKLLIYRASTLASGVPARFSGSGSGTDFTLNIDPVEADDIATYFCQQSWSDPFTFGSGTKLEIKR . State its measured koff.
Output: 0.0012
